system_name: Avi-KRAS WT (1-169) GppNHp/RAF1 RBD-3xFLAG (52-151) (Homo sapiens, UniProt P01116)
Construct: Avi-KRAS WT (1-169)
Sequence (P01116 1-169 isoform P01116-2): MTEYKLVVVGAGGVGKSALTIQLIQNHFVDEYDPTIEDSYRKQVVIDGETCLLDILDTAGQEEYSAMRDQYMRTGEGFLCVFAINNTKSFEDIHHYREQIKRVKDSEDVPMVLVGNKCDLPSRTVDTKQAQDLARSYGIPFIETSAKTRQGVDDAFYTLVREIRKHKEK
experiment_description: Raf1-KRAS WT-GppNHP disruption HTRF assay (Biological Example 1)
Assay type: binding
setup_conditions: KRAS WT, GppNHp-loaded; Table 11
measurement_label: IC50

Use these answered entries as a reference point.
[
  {
    "compound": "CS(=O)(=O)N1CCN(c2nc(OC[C@@]34CCCN3C[C@H](F)C4)nc3c(F)c(-c4ccc(F)c5sc(N)c(C#N)c45)c(C(F)(F)F)cc23)CC1",
    "IC50": "1000 to 10000 nM"
  },
  {
    "compound": "CN(c1nc(OC[C@@]23CCCN2C[C@H](F)C3)nc2c(F)c(-c3ccc(F)c4sc(N)nc34)c(C(F)(F)F)cc12)[C@H]1C[C@@H](O)C1 (atropisomer, axis not shown)",
    "IC50": "100 to 1000 nM"
  }
]

Please look at the items below and tell me IC50 for each one, in order.
1. N#Cc1c(N)sc2c(F)ccc(-c3c(C(F)(F)F)cc4c(N5CC(F)(F)C5)nc(OC[C@@]56CCCN5C[C@H](F)C6)nc4c3F)c12
2. N#Cc1c(N)sc2c(F)ccc(-c3c(C(F)(F)F)cc4c(N5CCOC6CC65)nc(OC[C@@]56CCCN5C[C@H](F)C6)nc4c3F)c12 (stereo partly shown)
3. CO[C@@H]1C[C@@H](COc2nc(N(C)[C@H]3C[C@@H](O)C3)c3cc(C(F)(F)F)c(-c4ccc(F)c5sc(N)nc45)c(F)c3n2)N(C)C1 (atropisomer, axis not shown)
4. CN(c1nc(OCC23CCCN2CCC3)nc2c(F)c(-c3ccc(F)c4sc(N)nc34)c(-c3ccoc3)cc12)[C@H]1C[C@@H](O)C1
5. N#Cc1c(N)sc2c(F)ccc(-c3c(C(F)(F)F)cc4c(N5CCn6nncc6C5)nc(OC[C@@]56CCCN5C[C@H](F)C6)nc4c3F)c12
6. N#Cc1c(N)sc2c(F)ccc(-c3c(C(F)(F)F)cc4c(N5CCCC6(C5)NC(=O)NC6=O)nc(OC[C@@]56CCCN5C[C@H](F)C6)nc4c3F)c12 (stereo partly shown)
7. N#Cc1c(N)sc2c(F)ccc(-c3c(C(F)(F)F)cc4c(N5CCC(O)CC5)nc(OC[C@@]56CCCN5C[C@H](F)C6)nc4c3F)c12

Ans:
1. 100 to 1000 nM
2. 100 to 1000 nM
3. 1000 to 10000 nM
4. 1000 to 10000 nM
5. 100 to 1000 nM
6. 100 to 1000 nM
7. 100 to 1000 nM

# compound CN(C[C@@H](F)CO)c1nc(OC[C@@]23CCCN2C[C@H](F)C3)nc2c(F)c(-c3ccc(F)c4sc(N)c(C#N)c34)c(C(F)(F)F)cc12 ; its IC50 = 100 to 1000 nM

###

system_name: Avi-KRAS G12C (2-169) GTP/RAF1 RBD-3xFLAG (51-131) (Homo sapiens, UniProt P01116, G12C)
Construct: Avi-KRAS G12C (2-169)
Sequence (P01116 2-169 isoform P01116-2 G12C): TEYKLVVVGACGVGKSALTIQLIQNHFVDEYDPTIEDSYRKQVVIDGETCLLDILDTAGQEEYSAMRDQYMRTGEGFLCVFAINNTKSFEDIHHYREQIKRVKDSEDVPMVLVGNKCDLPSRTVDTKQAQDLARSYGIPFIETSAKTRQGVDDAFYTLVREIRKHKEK
experiment_description: Raf1-KRAS G12C-GTP disruption HTRF assay (Biological Example 3)
Assay type: binding
setup_conditions: KRAS G12C, GTP-loaded
measurement_label: IC50

Use these answered entries as a reference point.
[
  {
    "compound": "CCN(c1nc(OC[C@@]23CCCN2C[C@H](F)C3)nc2c(F)c(-c3ccc(F)c4sc(N)c(C#N)c34)c(C(F)(F)F)cc12)[C@@H]1C[C@H]2CCC(=O)N2C1 (atropisomer, axis not shown)",
    "IC50": "0.1 to 1 µM"
  },
  {
    "compound": "CCN(c1nc(OC[C@@]23CCCN2C[C@H](F)C3)nc2c(F)c(-c3ccc(F)c4sc(N)c(C#N)c34)c(C(F)(F)F)cc12)[C@H]1CC[C@@H](C(=O)N(C)C)C1 (atropisomer, axis not shown)",
    "IC50": "1 to 10 µM"
  },
  {
    "compound": "CCN(c1nc(OC[C@@]23CCCN2C[C@H](F)C3)nc2c(F)c(-c3ccc(F)c4sc(N)c(C#N)c34)c(C(F)(F)F)cc12)C1C[C@@H](C)N(C(=O)C2CC2)C1 (some centres unmarked)",
    "IC50": "0.1 to 1 µM"
  },
  {
    "compound": "CN(c1nc(OC[C@@]23CCCN2C[C@H](F)C3)nc2c(F)c(-c3ccc(F)c4sc(N)c(C#N)c34)c(C(F)(F)F)cc12)[C@H]1CCCc2ccncc21 (atropisomer, axis not shown)",
    "IC50": "> 10 µM"
  }
]

# compound [2H]C1([2H])O[C@@H]2C[C@H]1N(c1nc(OC[C@@]34CCCN3C[C@H](F)C4)nc3c(F)c(-c4ccc(F)c5sc(N)c(C#N)c45)c(C(F)(F)F)cc13)C2 ; its IC50 = 1 to 10 µM

###

system_name: Avi-KRAS G12V (1-169) GppNHp/RAF1 RBD-3xFLAG (52-151) (Homo sapiens, UniProt P01116, G12V)
Construct: Avi-KRAS G12V (1-169)
Sequence (P01116 1-169 isoform P01116-2 G12V): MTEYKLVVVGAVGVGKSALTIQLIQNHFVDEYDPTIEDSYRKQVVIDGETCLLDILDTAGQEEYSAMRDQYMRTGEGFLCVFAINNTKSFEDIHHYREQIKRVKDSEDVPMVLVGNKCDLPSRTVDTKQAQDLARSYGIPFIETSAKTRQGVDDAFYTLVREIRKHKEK
experiment_description: Raf1-KRAS G12V-GppNHP disruption HTRF assay (Biological Example 1)
Assay type: binding
setup_conditions: KRAS G12V, GppNHp-loaded; class symbols
measurement_label: IC50

[
  {
    "molecule": "CCN(c1nc(OC[C@@]23CCCN2C[C@H](F)C3)nc2c(F)c(-c3ccc(F)c4sc(N)c(C#N)c34)c(C(F)(F)F)cc12)[C@H]1C[C@H](COC)N(C(=O)N(C)C)C1 (atropisomer, axis not shown)",
    "IC50": "100 to 1000 nM"
  }
]

So the reported IC50 for CCC(=O)N1C[C@@H](N(CC)c2nc(OC[C@@]34CCCN3C[C@H](F)C4)nc3c(F)c(-c4ccc(F)c5sc(N)c(C#N)c45)c(C(F)(F)F)cc23)C[C@@H]1COC (atropisomer, axis not shown) , on Avi-KRAS G12V (1-169) GppNHp/RAF1 RBD-3xFLAG (52-151) (Homo sapiens, UniProt P01116, G12V), turned out to be < 100 nM

###

system_name: Avi-KRAS WT (1-169) GppNHp/RAF1 RBD-3xFLAG (52-151) (Homo sapiens, UniProt P01116)
Construct: Avi-KRAS WT (1-169)
experiment_description: Raf1-KRAS WT-GppNHP disruption HTRF assay (Biological Example 1)
Assay type: binding
setup_conditions: KRAS WT-GppNHp/RAF1 RBD HTRF
Consider the following compounds; for each one, report its IC50.

Use these answered entries as a reference point.
[
  {
    "compound": "CCN(c1nc(OC[C@@]23CCCN2C[C@H](F)C3)nc2c(F)c(-c3ccc(F)c4sc(N)c(C#N)c34)c(C(F)(F)F)cc12)[C@H]1CC(=O)N(CC(F)F)C1",
    "IC50": "100 to 1000 nM"
  },
  {
    "compound": "N#Cc1c(N)sc2c(F)ccc(-c3c(C(F)(F)F)cc4c(N5CCCN6C(=O)CCC6C5)nc(OCC56CCCN5CC(F)C6)nc4c3F)c12 (centres unmarked)",
    "IC50": "1000 to 10000 nM"
  },
  {
    "compound": "CC(=O)N1C[C@@H]2OCCN(c3nc(OC[C@@]45CCCN4C[C@H](F)C5)nc4c(F)c(-c5ccc(F)c6sc(N)c(C#N)c56)c(C(F)(F)F)cc34)[C@@H]2C1",
    "IC50": "100 to 1000 nM"
  },
  {
    "compound": "CN(C)C(=O)c1nnn2c1CN(c1nc(OC[C@@]34CCCN3C[C@H](F)C4)nc3c(F)c(-c4ccc(F)c5sc(N)c(C#N)c45)c(C(F)(F)F)cc13)CC2",
    "IC50": "100 to 1000 nM"
  }
]

Switching to the query record.
# compound CCN(c1nc(OC[C@@]23CCCN2C[C@H](F)C3)nc2c(F)c(-c3ccc(F)c4sc(N)c(C#N)c34)c(C(F)(F)F)cc12)[C@@H]1CCN(C(=O)C(C)C)C1 ; its IC50 = 100 to 1000 nM

###

System: SW620 cells (KRAS G12V)
experiment_description: Cell-based pERK HTRF assay in SW620 cell (Biological Example 4)
setup_conditions: Homo sapiens, SW-620, SW620 (KRAS G12V) cells, pERK HTRF
measurement_label: IC50

Use these answered entries as a reference point.
[
  {
    "molecule": "CCN(c1nc(OC[C@@]23CCCN2C[C@H](F)C3)nc2c(F)c(-c3ccc(F)c4sc(N)c(C#N)c34)c(C(F)(F)F)cc12)[C@H]1CCN(C(=O)OC(C)C)C1 (atropisomer, axis not shown) [Compound 556]",
    "IC50": "< 100 nM"
  },
  {
    "molecule": "CN1C[C@@H](N(C)c2nc(OC[C@@]34CCCN3C[C@H](F)C4)nc3c(F)c(-c4ccc(F)c5sc(N)c(C#N)c45)c(C(F)(F)F)cc23)CCC1=O [Compound 478]",
    "IC50": "< 100 nM"
  }
]

Please look at the items below and tell me IC50 for each one, in order.
1. CN(c1nc(OC[C@@]23CCCN2C[C@H](F)C3)nc2c(F)c(-c3ccc(F)c4sc(N)c(C#N)c34)c(C(F)(F)F)cc12)C1CC(F)(F)C1 [Compound 162]
2. CCN(c1nc(OC[C@@]23CCCN2C[C@H](F)C3)nc2c(F)c(-c3ccc(F)c4sc(N)c(C#N)c34)c(Cl)cc12)[C@@H]1CCN(C(C)=O)[C@H]1C [Compound 416]
3. CCN(c1nc(OC[C@@]23CCCN2C[C@H](F)C3)nc2c(F)c(-c3ccc(F)c4sc(N)c(C#N)c34)c(C(F)(F)F)cc12)[C@H]1CCN(C(=O)C2CCC2)C1 (atropisomer, axis not shown) [Compound 551]

Ans:
["< 100 nM", "100 to 1000 nM", "< 100 nM"]
